# STUDY_TARGET: T1, Human c-Met-Flis-Fc ECD (human)
# T1 construct: also called human c-Met extracellular domain (ECD)-Fc-Flis fusion; Human cMet-ECD-Fc-Flis
# T1 sequence (chain, as listed by the source limits assumed): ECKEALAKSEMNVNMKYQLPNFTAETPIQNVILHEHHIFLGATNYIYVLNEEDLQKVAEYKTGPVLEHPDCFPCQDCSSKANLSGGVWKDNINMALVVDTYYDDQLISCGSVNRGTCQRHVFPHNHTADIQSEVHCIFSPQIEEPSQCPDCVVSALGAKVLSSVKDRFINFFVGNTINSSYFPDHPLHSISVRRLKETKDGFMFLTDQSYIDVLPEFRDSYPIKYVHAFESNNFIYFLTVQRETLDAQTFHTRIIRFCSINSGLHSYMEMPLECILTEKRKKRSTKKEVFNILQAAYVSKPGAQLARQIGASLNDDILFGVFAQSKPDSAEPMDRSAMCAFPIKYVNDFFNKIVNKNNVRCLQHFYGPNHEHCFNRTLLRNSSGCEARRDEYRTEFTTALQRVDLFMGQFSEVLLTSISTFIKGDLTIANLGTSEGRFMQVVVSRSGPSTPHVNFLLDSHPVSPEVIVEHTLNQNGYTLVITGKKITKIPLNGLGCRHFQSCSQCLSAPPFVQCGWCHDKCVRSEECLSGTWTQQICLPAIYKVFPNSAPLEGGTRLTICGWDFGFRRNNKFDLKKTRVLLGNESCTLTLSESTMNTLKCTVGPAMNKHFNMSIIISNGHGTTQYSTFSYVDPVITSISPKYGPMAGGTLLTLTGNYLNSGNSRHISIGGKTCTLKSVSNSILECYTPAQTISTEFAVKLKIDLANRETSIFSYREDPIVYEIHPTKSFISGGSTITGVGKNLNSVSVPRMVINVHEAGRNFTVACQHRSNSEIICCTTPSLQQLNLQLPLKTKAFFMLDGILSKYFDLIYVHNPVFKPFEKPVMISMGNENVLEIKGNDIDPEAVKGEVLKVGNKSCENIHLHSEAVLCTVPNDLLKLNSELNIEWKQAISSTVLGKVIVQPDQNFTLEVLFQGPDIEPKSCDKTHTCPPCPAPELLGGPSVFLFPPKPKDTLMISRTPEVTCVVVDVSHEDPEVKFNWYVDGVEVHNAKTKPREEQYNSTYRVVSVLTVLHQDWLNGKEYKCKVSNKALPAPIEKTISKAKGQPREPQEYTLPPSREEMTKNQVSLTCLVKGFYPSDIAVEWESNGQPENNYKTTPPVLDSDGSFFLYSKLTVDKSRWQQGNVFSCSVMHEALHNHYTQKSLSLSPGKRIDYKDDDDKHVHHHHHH
# ASSAY_DETAILS: ELISA, coated ECD-Fc, antibody 2.143 ng/mL
MEASUREMENT_KIND: Average A450 nm

// below: answered binders
BINDER	Average A450 nm
D11-C27G3 (antibody, human IgG2, kappa, V domains shown, Human engineered IgG2, kappa; also called D11-27G3) VH: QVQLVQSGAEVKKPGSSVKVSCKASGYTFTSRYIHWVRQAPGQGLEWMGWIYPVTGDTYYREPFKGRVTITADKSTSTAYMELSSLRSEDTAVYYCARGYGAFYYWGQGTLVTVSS VL: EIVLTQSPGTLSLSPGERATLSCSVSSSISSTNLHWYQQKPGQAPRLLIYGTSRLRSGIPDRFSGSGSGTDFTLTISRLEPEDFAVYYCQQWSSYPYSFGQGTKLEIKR	2.53 A450 nm
C8-6 (antibody, human IgG2, kappa, V domains shown, Called IgG4, kappa; also called Mab C8-6) VH: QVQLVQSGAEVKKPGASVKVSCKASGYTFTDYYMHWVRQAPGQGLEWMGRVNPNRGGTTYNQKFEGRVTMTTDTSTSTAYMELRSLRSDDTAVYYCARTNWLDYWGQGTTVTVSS VL: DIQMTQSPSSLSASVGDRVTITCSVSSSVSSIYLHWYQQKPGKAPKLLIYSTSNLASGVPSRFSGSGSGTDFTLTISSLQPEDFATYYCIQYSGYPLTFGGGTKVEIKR	2.42 A450 nm
C8-H241 (antibody, human IgG2, kappa, V domains shown, Called IgG4, kappa; also called Mab C8-H241) VH: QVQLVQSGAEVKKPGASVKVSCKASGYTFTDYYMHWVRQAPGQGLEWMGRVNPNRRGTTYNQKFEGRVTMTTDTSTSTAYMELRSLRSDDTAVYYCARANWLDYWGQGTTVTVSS VL: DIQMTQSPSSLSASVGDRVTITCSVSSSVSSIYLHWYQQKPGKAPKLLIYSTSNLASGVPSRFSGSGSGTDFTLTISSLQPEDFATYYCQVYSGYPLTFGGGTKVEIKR	2.86 A450 nm

May I ask what Average A450 nm has been recorded for D11-8B8 (antibody, human IgG2, kappa, V domains shown, Human engineered IgG2, kappa; expressed in HEK293 EBNA cells; also called Mab D11-8B8) VH: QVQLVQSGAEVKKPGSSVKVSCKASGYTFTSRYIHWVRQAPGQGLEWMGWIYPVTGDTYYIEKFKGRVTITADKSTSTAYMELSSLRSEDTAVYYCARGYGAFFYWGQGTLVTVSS VL: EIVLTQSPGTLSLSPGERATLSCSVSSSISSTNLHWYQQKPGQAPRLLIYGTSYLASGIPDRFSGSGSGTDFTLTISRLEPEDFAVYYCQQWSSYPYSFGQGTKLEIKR ?
2.42 A450 nm
